- Tested on: Escherichia coli ATCC BAA-2523
- Format: cell-based
- RECORDED CONDITIONS: ATCC BAA-2523
Bridge positions count the residues as written; N and C are the ends. Square brackets hold non-standard residues; d marks the D form. Peptide text beside a SMILES is read from it. * marks the point of attachment. Heptanoyl(6-Me) = CC(C)CCCCC(=O)*; dDab = NCC[C@@H](N)C(=O)O; Heptanoyl = CCCCCCC(=O)*; Dab = NCC[C@H](N)C(=O)O; Dap = NC[C@H](N)C(=O)O
READOUT KIND: MIC (µg/mL)
Please give a number only; it is taken to be in µg/mL.

So, CC(C)CCCCC(=O)N[C@@H](CN)C(=O)N[C@H](C(=O)N[C@H](CCN)C(=O)N[C@H]1CCNC(=O)[C@H]([C@@H](C)O)NC(=O)[C@H](CCN)NC(=O)[C@H](CCN)NC(=O)[C@H](CC(C)C)NC(=O)[C@@H](CC(C)C)NC(=O)[C@H](CCN)NC1=O)[C@@H](C)O [Compound 97] ({Heptanoyl(6-Me)}-[Dap]T[dDab][Dab][Dab][dL]L[Dab][Dab]T; lactam 4-C) ? Its MIC was 0.03

So, CCCCCCC(=O)N[C@@H](CCN)C(=O)N[C@H](C(=O)N[C@H](CCN)C(=O)N[C@H]1CCNC(=O)[C@H]([C@@H](C)O)NC(=O)[C@H](CCN)NC(=O)[C@H](CCN)NC(=O)[C@H]([C@@H](C)O)NC(=O)[C@@H](Cc2ccccc2)NC(=O)[C@H](CCN)NC1=O)[C@@H](C)O [Compound 14] (Heptanoyl-[Dab]T[dDab][Dab][Dab][dF]T[Dab][Dab]T; lactam 4-C) ? Its MIC was 0.03

* * *

- System: Acinetobacter baumannii NCTC 13304 (OXA-27)
- Assay type: cell-based
- RECORDED CONDITIONS: NCTC 13304
Bridge positions count the residues as written; N and C are the ends. Square brackets hold non-standard residues; d marks the D form. Peptide text beside a SMILES is read from it. * marks the point of attachment. Dab(CH2SO3H) = N[C@@H](CCNCS(=O)(=O)O)C(=O)O; Heptanoyl(6-Me) = CC(C)CCCCC(=O)*; Sulfomethyl = O=S(=O)(O)C*; dOrn = NCCC[C@@H](N)C(=O)O; Nonanoyl = CCCCCCCCC(=O)*; X1 = CC[C@H](C)CCCCC(=O)*; dDab = NCC[C@@H](N)C(=O)O; Heptanoyl = CCCCCCC(=O)*; Octanoyl = CCCCCCCC(=O)*; Orn = NCCC[C@H](N)C(=O)O; Dab = NCC[C@H](N)C(=O)O; Dap = NC[C@H](N)C(=O)O
So I've got a bunch of molecules here, and I need their MIC values.
Please give a number only; it is taken to be in µg/mL.

So, CCCCCCCCC(=O)N[C@@H](CCN)C(=O)N[C@H](C(=O)N[C@H](CCCN)C(=O)N[C@H]1CCNC(=O)[C@H]([C@@H](C)O)NC(=O)[C@H](CCN)NC(=O)[C@H](CCN)NC(=O)[C@H]([C@@H](C)O)NC(=O)[C@@H](Cc2ccccc2)NC(=O)[C@H](CCN)NC1=O)[C@@H](C)O [Compound 25] (Nonanoyl-[Dab]T[dOrn][Dab][Dab][dF]T[Dab][Dab]T; lactam 4-C) ? Its MIC was 0.06

So, CCCCCCC(=O)N[C@@H](CN)C(=O)N[C@H](C(=O)N[C@H](CCN)C(=O)N[C@H]1CCNC(=O)[C@H]([C@@H](C)O)NC(=O)[C@H](CCN)NC(=O)[C@H](CCN)NC(=O)[C@H](CC(C)C)NC(=O)[C@@H](Cc2ccccc2)NC(=O)[C@H](CCN)NC1=O)[C@@H](C)O [Compound 94] (Heptanoyl-[Dap]T[dDab][Dab][Dab][dF]L[Dab][Dab]T; lactam 4-C) ? Its MIC was 0.03

So, CC[C@H](C)CCCCC(=O)N[C@@H](CN)C(=O)N[C@H](C(=O)N[C@H](CO)C(=O)N[C@H]1CCNC(=O)[C@H]([C@@H](C)O)NC(=O)[C@H](CCN)NC(=O)[C@H](CCN)NC(=O)[C@H]([C@@H](C)O)NC(=O)[C@@H](Cc2ccccc2)NC(=O)[C@H](CCN)NC1=O)[C@@H](C)O [Compound 51] (X1-[Dap]T[dS][Dab][Dab][dF]T[Dab][Dab]T; lactam 4-C) ? Its MIC was 0.25

So, CC(C)CCCCC(=O)N[C@@H](CCN)C(=O)N[C@H](C(=O)N[C@H](CCCN)C(=O)N[C@H]1CCNC(=O)[C@H]([C@@H](C)O)NC(=O)[C@H](CCN)NC(=O)[C@H](CCN)NC(=O)[C@H](CC(C)C)NC(=O)[C@@H](Cc2ccccc2)NC(=O)[C@H](CCN)NC1=O)[C@@H](C)O [Compound 42] ({Heptanoyl(6-Me)}-[Dab]T[dOrn][Dab][Dab][dF]L[Dab][Dab]T; lactam 4-C) ? Its MIC was 0.06

So, CC(C)CCCCC(=O)N[C@@H](CCNCS(=O)(=O)O)C(=O)N[C@H](C(=O)N[C@@H](CN)C(=O)N[C@H]1CCNC(=O)[C@H]([C@@H](C)O)NC(=O)[C@H](CCN)NC(=O)[C@H](CCN)NC(=O)[C@H]([C@@H](C)O)NC(=O)[C@@H](Cc2ccccc2)NC(=O)[C@H](CCN)NC1=O)[C@@H](C)O [Compound 117] ({Heptanoyl(6-Me)}-[Dab(CH2SO3H)]T[Dap][Dab][Dab][dF]T[Dab][Dab]T; lactam 4-C) ? Its MIC was 0.06

So, CC(C)CCCCC(=O)N[C@@H](CCCN)C(=O)N[C@H](C(=O)N[C@H](CO)C(=O)N[C@H]1CCNC(=O)[C@H]([C@@H](C)O)NC(=O)[C@H](CCN)NC(=O)[C@H](CCN)NC(=O)[C@H]([C@@H](C)O)NC(=O)[C@@H](Cc2ccccc2)NC(=O)[C@H](CCN)NC1=O)[C@@H](C)O [Compound 57] ({Heptanoyl(6-Me)}-[Orn]T[dS][Dab][Dab][dF]T[Dab][Dab]T; lactam 4-C) ? Its MIC was 0.25

So, CC(C)CCCCC(=O)N[C@@H](CCN)C(=O)N[C@H](C(=O)N[C@@H](CN)C(=O)N[C@H]1CCNC(=O)[C@H]([C@@H](C)OCS(=O)(=O)O)NC(=O)[C@H](CCN)NC(=O)[C@H](CCN)NC(=O)[C@H]([C@@H](C)O)NC(=O)[C@@H](Cc2ccccc2)NC(=O)[C@H](CCN)NC1=O)[C@@H](C)O [Compound 115] ({Heptanoyl(6-Me)}-[Dab]T[Dap][Dab][Dab][dF]T[Dab][Dab]T(Sulfomethyl); lactam 4-C) ? Its MIC was 0.06

So, CC(C)CCCCC(=O)N[C@@H](CCN)C(=O)N[C@H](C(=O)N[C@H](CO)C(=O)N[C@H]1CCNC(=O)[C@H]([C@@H](C)OCS(=O)(=O)O)NC(=O)[C@H](CCN)NC(=O)[C@H](CCN)NC(=O)[C@H]([C@@H](C)O)NC(=O)[C@@H](Cc2ccccc2)NC(=O)[C@H](CCN)NC1=O)[C@@H](C)O [Compound 106] ({Heptanoyl(6-Me)}-[Dab]T[dS][Dab][Dab][dF]T[Dab][Dab]T(Sulfomethyl); lactam 4-C) ? Its MIC was 0.06

So, CCCCCCCC(=O)N[C@@H](CCCN)C(=O)N[C@H](C(=O)N[C@H](CO)C(=O)N[C@H]1CCNC(=O)[C@H]([C@@H](C)O)NC(=O)[C@H](CCN)NC(=O)[C@H](CCN)NC(=O)[C@H]([C@@H](C)O)NC(=O)[C@@H](Cc2ccccc2)NC(=O)[C@H](CCN)NC1=O)[C@@H](C)O [Compound 58] (Octanoyl-[Orn]T[dS][Dab][Dab][dF]T[Dab][Dab]T; lactam 4-C) ? Its MIC was 0.25
